Provide the recorded pIC50 for the entries that follow.
Convention used: pIC50 is expressed as -log10 of the molar concentration.

Task: pIC50 of c1cc(C[n+]2ccc(N3CCCCC3)cc2)cc(-c2cccc(C[n+]3ccc(N4CCCCC4)cc3)c2)c1 on Butyrylcholinesterase (Equus caballus, UniProt Q9N1N9)?
Output: 6.75

Task: pIC50 of COc1cc2c(cc1OC)CN(c1cc[n+](Cc3ccc(-c4ccc(C[n+]5ccc(N6CCc7cc(OC)c(OC)cc7C6)cc5)cc4)cc3)cc1)CC2 on Butyrylcholinesterase (Equus caballus, UniProt Q9N1N9)?
Output: 5.82

Task: pIC50 of c1ccc(-c2cc[n+](Cc3cccc(-c4cccc(C[n+]5ccc(-c6ccccc6)cc5)c4)c3)cc2)cc1 on Butyrylcholinesterase (Equus caballus, UniProt Q9N1N9)?
Output: 6.10

Task: pIC50 of COc1cc2c(cc1OC)CN(c1cc[n+](Cc3ccc(C[n+]4ccc(N5CCc6cc(OC)c(OC)cc6C5)cc4)cc3)cc1)CC2 on Butyrylcholinesterase (Equus caballus, UniProt Q9N1N9)?
Output: 5.86

Task: pIC50 of c1cc(C[n+]2ccc(C3CCCCC3)cc2)cc(-c2cccc(C[n+]3ccc(C4CCCCC4)cc3)c2)c1 on Butyrylcholinesterase (Equus caballus, UniProt Q9N1N9)?
Output: 5.96

Task: pIC50 of Nc1cc[n+](Cc2ccc(CCc3ccc(C[n+]4ccc(N)c5ccccc54)cc3)cc2)c2ccccc12 on Butyrylcholinesterase (Equus caballus, UniProt Q9N1N9)?
Output: 6.21

Task: pIC50 of c1cc(C[n+]2ccc(N3CCc4ccccc4C3)cc2)cc(C[n+]2ccc(N3CCc4ccccc4C3)cc2)c1 on Butyrylcholinesterase (Equus caballus, UniProt Q9N1N9)?
Output: 6.72

Task: pIC50 of OC1C[N+]2(Cc3cccc(-c4cccc(C[N+]56CCC(CC5)C(O)C6)c4)c3)CCC1CC2 (stereo not drawn) on Butyrylcholinesterase (Equus caballus, UniProt Q9N1N9)?
Output: 5.94

----------
# pIC50 per entry for UniProt:P23795
# Sequence (P23795 whole entry): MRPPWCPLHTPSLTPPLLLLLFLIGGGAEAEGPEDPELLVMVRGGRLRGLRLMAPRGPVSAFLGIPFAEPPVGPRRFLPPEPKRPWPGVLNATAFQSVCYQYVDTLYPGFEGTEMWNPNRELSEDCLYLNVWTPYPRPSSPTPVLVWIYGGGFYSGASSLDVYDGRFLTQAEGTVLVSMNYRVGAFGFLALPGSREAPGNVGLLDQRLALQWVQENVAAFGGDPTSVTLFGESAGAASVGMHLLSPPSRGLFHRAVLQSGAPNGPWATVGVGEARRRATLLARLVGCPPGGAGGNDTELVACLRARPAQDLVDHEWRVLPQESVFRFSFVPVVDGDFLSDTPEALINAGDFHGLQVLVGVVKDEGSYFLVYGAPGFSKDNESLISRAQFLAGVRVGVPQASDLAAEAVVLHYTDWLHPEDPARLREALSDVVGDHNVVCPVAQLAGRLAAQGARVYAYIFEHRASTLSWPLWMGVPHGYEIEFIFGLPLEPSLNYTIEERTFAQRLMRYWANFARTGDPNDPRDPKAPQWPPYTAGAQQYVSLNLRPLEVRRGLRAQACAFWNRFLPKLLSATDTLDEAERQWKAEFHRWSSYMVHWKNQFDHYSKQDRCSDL
Convention used: pIC50 is expressed as -log10 of the molar concentration.

Task: Return reported pIC50; argument: OC1C[N+]2(Cc3ccc(CCc4ccc(C[N+]56CCC(CC5)C(O)C6)cc4)cc3)CCC1CC2 (centres undefined)
Output: 7.01

Task: Return reported pIC50; argument: COc1cc2c(cc1OC)CN(c1cc[n+](Cc3ccc(-c4ccc(C[n+]5ccc(N6CCc7cc(OC)c(OC)cc7C6)cc5)cc4)cc3)cc1)CC2
Output: 7.03

Task: Return reported pIC50; argument: c1cc(C[n+]2ccc(N3CCCCC3)cc2)ccc1Cc1ccc(C[n+]2ccc(N3CCCCC3)cc2)cc1
Output: 7.08

Task: Return reported pIC50; argument: c1cc(C[n+]2ccc(C3CCCCC3)cc2)cc(-c2cccc(C[n+]3ccc(C4CCCCC4)cc3)c2)c1
Output: 6.87

Task: Return reported pIC50; argument: c1cc(C[n+]2ccc(N3CCCC3)cc2)cc(-c2cccc(C[n+]3ccc(N4CCCC4)cc3)c2)c1
Output: 7.41

Task: Return reported pIC50; argument: CN(c1cc[n+](Cc2cc(C[n+]3ccc(N(C)c4cc(Cl)cc(Cl)c4)cc3)cc(C[n+]3ccc(N(C)c4cc(Cl)cc(Cl)c4)cc3)c2)cc1)c1cc(Cl)cc(Cl)c1
Output: 5.75

Task: Return reported pIC50; argument: c1cc2cc(c1)C[n+]1ccc(cc1)NCc1ccc(cc1)CNc1cc[n+](cc1)C2
Output: 5.41

Task: Return reported pIC50; argument: CN(C)c1cc[n+](Cc2cccc(C[n+]3ccc(N(C)C)cc3)c2)cc1
Output: 6.41

Task: Return reported pIC50; argument: c1cc(C[n+]2ccc(N3CCCC3)cc2)ccc1CCCc1ccc(C[n+]2ccc(N3CCCC3)cc2)cc1
Output: 7.09

----------
targetSystem: Butyrylcholinesterase (Equus caballus)
Sequence (Q9N1N9 whole entry): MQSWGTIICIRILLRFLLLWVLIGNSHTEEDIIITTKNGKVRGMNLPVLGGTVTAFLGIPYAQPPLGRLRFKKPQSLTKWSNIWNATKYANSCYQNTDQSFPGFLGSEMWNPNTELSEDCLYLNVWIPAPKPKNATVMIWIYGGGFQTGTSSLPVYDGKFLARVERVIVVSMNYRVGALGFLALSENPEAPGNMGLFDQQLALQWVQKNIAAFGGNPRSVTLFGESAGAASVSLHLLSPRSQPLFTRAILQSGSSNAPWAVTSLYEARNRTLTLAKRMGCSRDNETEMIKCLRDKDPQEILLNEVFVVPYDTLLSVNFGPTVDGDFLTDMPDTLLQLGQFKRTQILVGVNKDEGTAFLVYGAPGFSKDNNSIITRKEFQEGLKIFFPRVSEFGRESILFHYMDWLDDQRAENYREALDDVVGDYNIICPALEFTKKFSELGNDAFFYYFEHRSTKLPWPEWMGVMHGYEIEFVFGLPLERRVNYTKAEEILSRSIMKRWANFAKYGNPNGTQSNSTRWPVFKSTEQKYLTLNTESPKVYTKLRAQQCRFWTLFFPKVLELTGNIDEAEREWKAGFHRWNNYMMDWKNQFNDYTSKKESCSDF
// boundary case: IC50 equal to 900 nM maps to condition not met; strictly smaller maps to condition met

Task: Is 900 nM strictly greater than the compound's reported IC50? compound: Cc1c2c(C)c3c(C)c1C[n+]1ccc(cc1)NCc1cc(cc(c1)CNc1cc[n+](cc1)C3)CNc1cc[n+](cc1)C2
Output: condition met

Task: Is 900 nM strictly greater than the compound's reported IC50? compound: CN(C)c1cc[n+](Cc2ccc(CCc3ccc(C[n+]4ccc(N(C)C)cc4)cc3)cc2)cc1
Output: condition not met

Task: Is 900 nM strictly greater than the compound's reported IC50? compound: CN(c1cc[n+](Cc2ccc(-c3ccc(C[n+]4ccc(N(C)c5cc(Cl)cc(Cl)c5)cc4)cc3)cc2)cc1)c1cc(Cl)cc(Cl)c1
Output: condition met

Task: Is 900 nM strictly greater than the compound's reported IC50? compound: c1cc(-c2ccc(C[n+]3ccc(N4CCCC4)cc3)cc2)ccc1C[n+]1ccc(N2CCCC2)cc1
Output: condition not met

Task: Is 900 nM strictly greater than the compound's reported IC50? compound: c1cc(C[n+]2ccc(N3CCCC3)cc2)cc(-c2cccc(C[n+]3ccc(N4CCCC4)cc3)c2)c1
Output: condition met
